- system name: 3',5'-cyclic-AMP phosphodiesterase 4D (Homo sapiens, UniProt Q08499)
- Sequence (Q08499 whole entry): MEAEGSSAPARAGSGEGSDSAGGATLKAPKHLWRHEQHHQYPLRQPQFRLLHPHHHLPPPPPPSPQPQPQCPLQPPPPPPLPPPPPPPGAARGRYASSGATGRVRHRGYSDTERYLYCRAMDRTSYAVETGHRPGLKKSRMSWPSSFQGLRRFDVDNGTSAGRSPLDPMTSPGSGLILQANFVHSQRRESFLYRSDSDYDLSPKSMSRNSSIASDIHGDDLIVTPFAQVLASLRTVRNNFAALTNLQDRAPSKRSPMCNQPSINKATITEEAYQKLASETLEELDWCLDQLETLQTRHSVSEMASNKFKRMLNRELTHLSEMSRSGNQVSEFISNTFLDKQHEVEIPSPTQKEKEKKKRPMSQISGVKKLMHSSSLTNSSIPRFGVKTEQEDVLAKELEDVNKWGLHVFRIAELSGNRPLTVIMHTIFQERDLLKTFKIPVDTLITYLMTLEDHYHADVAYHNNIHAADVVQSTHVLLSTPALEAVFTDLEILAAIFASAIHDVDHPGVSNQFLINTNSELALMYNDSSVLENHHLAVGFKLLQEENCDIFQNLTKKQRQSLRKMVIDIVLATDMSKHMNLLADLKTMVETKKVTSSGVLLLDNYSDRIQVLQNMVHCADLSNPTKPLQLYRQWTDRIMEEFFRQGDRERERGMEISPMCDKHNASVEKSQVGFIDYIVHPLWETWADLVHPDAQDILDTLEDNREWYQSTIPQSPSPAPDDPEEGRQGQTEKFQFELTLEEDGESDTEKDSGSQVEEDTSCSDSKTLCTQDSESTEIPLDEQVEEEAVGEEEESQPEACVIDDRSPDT
- protocol: Inhibition of full-length human PDE4D2 assessed as cAMP hydrolysis preincubated for 20 mins followed by cAMP addition measured after 30 mins
Each record is given criterion met if its reported IC50 is strictly below 500 nM. Records at or above 500 nM are given criterion not met.

Here are 8 compounds together with their reported answers.
O=C(O)Cc1ccc(Nc2nc(-c3ccc(-c4ccccc4)cc3)nc3c2S(=O)(=O)CCC3)cc1: criterion not met
COc1ccc(-c2nc3c(c(Nc4ccc(CC(=O)O)cc4)n2)SCCC3)cc1Cl: criterion met
O=C(O)Cc1ccc(Nc2nc(-c3ccc4ccccc4c3)nc3c2S(=O)(=O)CCC3)cc1: criterion not met
CCCCNC(=O)Cc1ccc(Nc2nc(-c3ccccc3)nc3c2S(=O)(=O)CCC3)cc1: criterion met
CN(C)c1ccc(-c2nc3c(c(Nc4ccc(CC(=O)O)cc4)n2)S(=O)(=O)CCC3)cn1: criterion not met
COc1cccc(-c2nc3c(c(Nc4ccc(CC(=O)O)cc4)n2)SCCC3)c1: criterion not met
COc1ccc(-c2nc3c(c(Nc4ccc(CC(=O)O)cc4)n2)S(=O)(=O)CCC3)c(F)c1F: criterion not met
O=C(O)Cc1ccc(Nc2nc(-c3ccccc3F)nc3c2SCCC3)cc1: criterion not met

Hello, I'm reviewing records and need to know if IC50 of O=C(O)Cc1ccc(Nc2nc(-c3ccc(Cl)cc3)nc3c2SCCC3)cc1 is below 500 nM. Could you check?
criterion met

----------
- system name: UniProt:Q08499
- protocol: Inhibition of full-length human PDE4D2 assessed as cAMP hydrolysis preincubated for 20 mins followed by cAMP addition measured after 30 mins
Each record is given true (1) if its reported IC50 is strictly below 1000 nM. Records at or above 1000 nM are given false (0).

Here are 6 compounds together with their reported answers.
O=C(O)Cc1ccc(Nc2nc(-c3cccc(F)c3)nc3c2SCCC3)cc1: true (1)
O=C(O)Cc1ccc(Nc2nc(-c3ccccc3)nc3c2SCCC3)cc1: false (0)
COc1ccc(-c2nc3c(c(Nc4ccc(CC(=O)O)cc4)n2)S(=O)(=O)CCC3)cc1Cl: false (0)
CN(C)c1ccc(-c2nc3c(c(Nc4ccc(CC(=O)O)cc4)n2)SCCC3)cn1: false (0)
COc1ccc(-c2nc3c(c(Nc4cc(F)c(CC(=O)O)c(F)c4)n2)S(=O)(=O)CCC3)cc1F: true (1)
O=C(O)Cc1ccc(Nc2nc(-c3ccc4c(F)cccc4c3)nc3c2S(=O)(=O)CCC3)cc1: true (1)

With those in mind, consider the next compound.
Hello, I'm reviewing records and need to know if IC50 of COc1ccc(-c2nc3c(c(Nc4ccc(CC(=O)O)c(F)c4)n2)S(=O)(=O)CCC3)cc1 is below 1000 nM. Could you check?
false (0)

----------
- system name: 3',5'-cyclic-AMP phosphodiesterase 4D (Homo sapiens)
- protocol: Inhibition of full-length human PDE4D2 assessed as cAMP hydrolysis preincubated for 20 mins followed by cAMP addition measured after 30 mins
Each record is given Y if its reported IC50 is strictly below 800 nM. Records at or above 800 nM are given N.

COc1ccc(-c2nc3c(c(Nc4ccc(CC(=O)O)cc4)n2)S(=O)(=O)CCC3)cc1F: N
COc1ccc(-c2nc3c(c(Nc4ccc(CC(=O)O)cc4)n2)SCCC3)c(F)c1F: N
COc1ccc(-c2nc3c(c(Nc4ccc(CC(=O)O)c(Cl)c4)n2)S(=O)(=O)CCC3)cc1F: N
COc1ccc(-c2nc3c(c(Nc4ccc(CC(=O)NCC(C)(C)C)cc4)n2)S(=O)(=O)CCC3)cc1F: Y
O=C(O)Cc1ccc(Nc2nc(-c3ccc(F)cc3)nc3c2SCCC3)cc1: N
COc1ccc(-c2nc3c(c(Nc4ccc(CC(=O)O)cc4)n2)SCCC3)cc1: Y
CC(=O)c1ccc(-c2nc3c(c(Nc4ccc(CC(=O)O)cc4)n2)SCCC3)cc1: N
COc1ccc(-c2nc3c(c(Nc4cc(Cl)c(CC(=O)O)cc4Cl)n2)S(=O)(=O)CCC3)cc1F: Y
COc1ccc(-c2nc3c(c(Nc4ccc(CC(=O)O)c(F)c4)n2)S(=O)(=O)CCC3)cc1F: Y

With those in mind, consider the next compound.
Hello, I'm reviewing records and need to know if IC50 of COc1cccc2cc(-c3nc4c(c(Nc5ccc(CC(=O)O)cc5)n3)S(=O)(=O)CCC4)ccc12 is below 800 nM. Could you check?
Y
